Measured screen value, listed per entry.
B1: human PERK luminal domain (residues 105–403) [human] / itself (parent)
chain: LVIISTLDGRIAALDPENHGKKQWDLDVGSGSLVSSSLSKPEVFGNKMIIPSLDGALFQWDQDRESMETVPFTVESLLESSYKFGDDVVLVGGKSLTTYGLSAYSGKVRYICSALGCRQWDSDEMEQEEDILLLQRTQKTVRAVGPRSGNEKWNFSVGHFELRYIPDMETRAGFIESTFKPNENTEESKIISDVEEQEAAIMDIVIKVSVADWKVMAFSKKGGHLEWEYQFCTPIASAWLLKDGKVIPISLFDDTSYTSNDDVLEDEEDIVEAARGATENSVYLGMYRGQLYLQSSVRI

Variants of: B1
Assay: sedimentation velocity AUC
Conditions: with itself; parent: 0
OBSERVABLE: screen value

chain 1 L284N | -58%
chain 1 A274N | -52%
chain 1 L291N | -57%
chain 1 L293N | -61%

Origin of measurements: paper PMC4474532
